src = ChEMBL document CHEMBL2417437

Target: Serine/threonine-protein kinase mTOR (Homo sapiens, UniProt P42345)
Experiment: Inhibition of human recombinant mTOR (1360-2549) expressed in insect cells assessed as phosphorylation of recombinant (GFP)-4-EBP1 after 30 mins by LanthaScreen FRET assay

chemical structure: CCNC(=O)Nc1ccc(-c2nc(N3CCOC[C@@H]3C)c3c(ccn3C)n2)cc1
tested on: Serine/threonine-protein kinase mTOR (Homo sapiens, UniProt P42345)
Ki / nM: 19
--
chemical structure: CCNC(=O)Nc1ccc(-c2nc(N3CCOC[C@@H]3C)c3nc(C(C)(C)O)n(CCO)c3n2)cc1
tested on: Serine/threonine-protein kinase mTOR (Homo sapiens, UniProt P42345)
Ki / nM: 9.5
--
chemical structure: CCNC(=O)Nc1ccc(-c2nc(N3CCOC[C@@H]3CC)c3c(cnn3C)n2)cc1
tested on: Serine/threonine-protein kinase mTOR (Homo sapiens, UniProt P42345)
Ki / nM: 1
--
chemical structure: CCNC(=O)Nc1ccc(-c2nc(N3CCOCC3)c3c(ncn3C)n2)cc1
tested on: Serine/threonine-protein kinase mTOR (Homo sapiens, UniProt P42345)
Ki / nM: 150
--
chemical structure: CCNC(=O)Nc1ccc(-c2nc(N3CCOC[C@@H]3CC)c3c(ccn3C)n2)cc1
tested on: Serine/threonine-protein kinase mTOR (Homo sapiens, UniProt P42345)
Ki / nM: 6
--
chemical structure: CCNC(=O)Nc1ccc(-c2nc(N3CCOC[C@@H]3C)c3nc(C(C)(C)O)n(C)c3n2)cc1
tested on: Serine/threonine-protein kinase mTOR (Homo sapiens, UniProt P42345)
Ki / nM: 7
--
chemical structure: CCNC(=O)Nc1ccc(-c2nc(N3CCOC[C@@H]3C)c3ncn(C)c3n2)cc1
tested on: Serine/threonine-protein kinase mTOR (Homo sapiens, UniProt P42345)
Ki / nM: 12
--
chemical structure: CCNC(=O)Nc1ccc(-c2nc(N3CCOC[C@@H]3C)c3ncn(CC)c3n2)cc1
tested on: Serine/threonine-protein kinase mTOR (Homo sapiens, UniProt P42345)
Ki / nM: 8
--
chemical structure: CCNC(=O)Nc1ccc(-c2nc(N3C[C@@H]4C[C@H]3CO4)c3c(cnn3C)n2)cc1
tested on: Serine/threonine-protein kinase mTOR (Homo sapiens, UniProt P42345)
Ki / nM: 28
--
chemical structure: CCNC(=O)Nc1ccc(-c2nc(N3CCOC[C@@H]3C)c3c(cnn3C)n2)cc1
tested on: Serine/threonine-protein kinase mTOR (Homo sapiens, UniProt P42345)
Ki / nM: 8

###

Assay: Plasma clearance in iv dosed mouse
Format: ADME, organism-based
recorded metric: clearance (mL/min/kg)

chemical structure: CCNC(=O)Nc1ccc(-c2nc(N3CCOC[C@@H]3C)c3c(cnn3C)n2)cc1
observed: 13

###

Biological target: Serine/threonine-protein kinase mTOR (Homo sapiens)
Assay: Inhibition of mTOR in PTEN deficient human PC3 cells assessed as inhibition of Akt phosphorylation at Ser473
Type: cell-based, PC-3
Simple rule here: IC50 less than 10 nM is 1 (yes), otherwise 0 (no).

chemical structure: CCNC(=O)Nc1ccc(-c2nc(N3CCOC[C@@H]3CC)c3c(ncn3C)n2)cc1
assigned class: 0 (no)
--
chemical structure: CCNC(=O)Nc1ccc(-c2nc(N3CCOC[C@@H]3CC)c3c(cnn3C)n2)cc1
assigned class: 1 (yes)
--
chemical structure: CCNC(=O)Nc1ccc(-c2nc(N3CCOC[C@@H]3C)c3c(ccn3C)n2)cc1
assigned class: 0 (no)
--
chemical structure: CCNC(=O)Nc1ccc(-c2nc(N3CCOC[C@@H]3CC)c3c(n2)c(C)nn3C)cc1
assigned class: 1 (yes)
--
chemical structure: CCNC(=O)Nc1ccc(-c2nc(N3CCOC[C@@H]3CC)c3c(ccn3C)n2)cc1
assigned class: 0 (no)
--
chemical structure: CCNC(=O)Nc1ccc(-c2nc(N3CCOC[C@@H]3C)c3c(cnn3C)n2)cc1
assigned class: 1 (yes)
--
chemical structure: CCNC(=O)Nc1ccc(-c2nc(N3C[C@@H]4C[C@H]3CO4)c3c(cnn3C)n2)cc1
assigned class: 0 (no)
--
chemical structure: CCNC(=O)Nc1ccc(-c2nc(N3CCCOCC3)c3c(ncn3C)n2)cc1
assigned class: 0 (no)

###

Test: Efflux ratio of apparent permeability in MDCK cells
Type: ADME, cell-based, Canis lupus familiaris
Settings: dog
recorded metric: efflux ratio

chemical structure: CCNC(=O)Nc1ccc(-c2nc(N3CCOC[C@@H]3C)c3c(cnn3C)n2)cc1
observed: 0.55
